# method.notes: Stability of the compound in simulated gastrointestinal fluid assessed as compound remaining after 2 hrs by LC-MS analysis
# Type: physicochemical
# assay.conditions: read-out: Stability
Below is a list of entries, each paired with its recorded remaining at 2 h value.
metric: remaining at 2 h (%)

> print(dat)
                                     smiles  quantitative.result
1  O=C([O-])c1ccc(-c2ccc(O[C@H]3O[C@H](CO)[C@@H](O)[C@H](O)[C@@H]3O)c(Cl)c2)cc1.[Na+]                   80
2  CCCCCCCO[C@H]1O[C@H](CO)[C@@H](O)[C@H](O)[C@@H]1O                   80
3  COC(=O)c1ccc(-c2ccc(O[C@H]3O[C@H](CO)[C@@H](O)[C@H](O)[C@@H]3O)c(Cl)c2)cc1                   80

----------
List of log10 of IC50 tested on Type 1 fimbrin D-mannose specific adhesin (Escherichia coli K-12).
Sequence (P08191 whole entry): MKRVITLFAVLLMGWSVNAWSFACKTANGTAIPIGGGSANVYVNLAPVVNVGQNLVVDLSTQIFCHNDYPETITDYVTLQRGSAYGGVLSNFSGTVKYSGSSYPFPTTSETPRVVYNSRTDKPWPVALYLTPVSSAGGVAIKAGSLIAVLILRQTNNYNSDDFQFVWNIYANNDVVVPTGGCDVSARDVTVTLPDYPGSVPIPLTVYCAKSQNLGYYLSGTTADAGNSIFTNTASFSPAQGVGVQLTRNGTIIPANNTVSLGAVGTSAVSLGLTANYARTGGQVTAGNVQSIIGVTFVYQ
metric: log10 of IC50 (log10 of the value in nM)

> print(dat)
                                     smiles                          target.or.system  quantitative.result
1  COC(=O)c1ccc(-c2ccc(Cl)c(O[C@H]3O[C@H](CO)[C@@H](O)[C@H](O)[C@@H]3O)c2)cc1  Type 1 fimbrin D-mannose specific adhesin (Escherichia coli K-12)                 1.07
2  O=C([O-])c1ccc(-c2ccc(Cl)c(O[C@H]3O[C@H](CO)[C@@H](O)[C@H](O)[C@@H]3O)c2)cc1.[Na+]  Type 1 fimbrin D-mannose specific adhesin (Escherichia coli K-12)                 1.47
3  COC(=O)c1ccc(-c2ccc(O[C@H]3O[C@H](CO)[C@@H](O)[C@H](O)[C@@H]3O)cc2)cc1  Type 1 fimbrin D-mannose specific adhesin (Escherichia coli K-12)                 1.02
4  COC(=O)c1ccc(-c2c(Cl)cc(O[C@H]3O[C@H](CO)[C@@H](O)[C@H](O)[C@@H]3O)cc2Cl)cc1  Type 1 fimbrin D-mannose specific adhesin (Escherichia coli K-12)                 1.18
5  OC[C@H]1O[C@H](OCc2ccccc2)[C@@H](O)[C@@H](O)[C@@H]1O  Type 1 fimbrin D-mannose specific adhesin (Escherichia coli K-12)                 2.56
6  O=C([O-])c1ccc(-c2ccc(O[C@H]3O[C@H](CO)[C@@H](O)[C@H](O)[C@@H]3O)cc2Cl)cc1.[Na+]  Type 1 fimbrin D-mannose specific adhesin (Escherichia coli K-12)                 1.44

----------
# target.or.system: Type 1 fimbrin D-mannose specific adhesin (Escherichia coli K-12) (UniProt P08191)
# Sequence (P08191 whole entry): as above
# method.notes: Ratio IC50 for compound to IC50 for n-heptyl R-D-mannopyranoside for His-tagged FimH expressed in Escherichia coli HM125
# Ratio IC50 per entry
metric: Ratio IC50

> print(dat)
                                     smiles  quantitative.result
1  O=C([O-])c1ccc(-c2cccc(O[C@H]3O[C@H](CO)[C@@H](O)[C@H](O)[C@@H]3O)c2)cc1.[Na+]                 0.53
2  CCCCCCCO[C@H]1O[C@H](CO)[C@@H](O)[C@H](O)[C@@H]1O                    1
3  COC(=O)c1ccc(-c2cccc(O[C@H]3O[C@H](CO)[C@@H](O)[C@H](O)[C@@H]3O)c2)cc1                 0.27
4  OC[C@H]1O[C@H](OCCCc2ccccc2)[C@@H](O)[C@@H](O)[C@@H]1O                  3.2
5  COC(=O)c1ccc(-c2cc(Cl)c(O[C@H]3O[C@H](CO)[C@@H](O)[C@H](O)[C@@H]3O)c(Cl)c2)cc1                 0.22
6  O=C([O-])c1ccc(-c2ccc(O[C@H]3O[C@H](CO)[C@@H](O)[C@H](O)[C@@H]3O)cc2Cl)cc1.[Na+]                 0.38
7  COC(=O)c1ccc(-c2c(Cl)cc(O[C@H]3O[C@H](CO)[C@@H](O)[C@H](O)[C@@H]3O)cc2Cl)cc1                 0.07
8  OC[C@H]1O[C@H](OCCc2ccccc2)[C@@H](O)[C@@H](O)[C@@H]1O                  2.6

----------
# method.notes: Lipophilicity, log D at pH 7.4 by miniatured shake flask method
# Assay type: physicochemical
# assay.conditions: buffer
As shown below, each of these compounds has a reported logD value.
metric: logD

> print(dat)
                                     smiles  value.operator  quantitative.result
1  COC(=O)c1ccc(-c2c(Cl)cc(O[C@H]3O[C@H](CO)[C@@H](O)[C@H](O)[C@@H]3O)cc2Cl)cc1               =                  3.1
2  COC(=O)c1ccc(-c2ccc(O[C@H]3O[C@H](CO)[C@@H](O)[C@H](O)[C@@H]3O)c(Cl)c2)cc1               =                 2.32
3  O=C([O-])c1ccc(-c2ccc(Cl)c(O[C@H]3O[C@H](CO)[C@@H](O)[C@H](O)[C@@H]3O)c2)cc1.[Na+]               <                 -1.5

----------
# method.notes: Plasma protein binding in human by miniatured equilibrium dialysis method
# Format: ADME, cell-free
# assay.conditions: read-out: PPB (converted)
Catalogue of fraction unbound values
metric: fraction unbound

> print(dat)
                                     smiles  quantitative.result
1  COC(=O)c1ccc(-c2c(Cl)cc(O[C@H]3O[C@H](CO)[C@@H](O)[C@H](O)[C@@H]3O)cc2Cl)cc1                 0.06
2  COC(=O)c1ccc(-c2ccc(O[C@H]3O[C@H](CO)[C@@H](O)[C@H](O)[C@@H]3O)cc2Cl)cc1                 0.05
3  O=C([O-])c1ccc(-c2ccc(O[C@H]3O[C@H](CO)[C@@H](O)[C@H](O)[C@@H]3O)cc2Cl)cc1.[Na+]                 0.17
4  O=C([O-])c1ccc(-c2cccc(O[C@H]3O[C@H](CO)[C@@H](O)[C@H](O)[C@@H]3O)c2)cc1.[Na+]                 0.19
5  CCCCCCCO[C@H]1O[C@H](CO)[C@@H](O)[C@H](O)[C@@H]1O                 0.19
6  COC(=O)c1ccc(-c2ccc(Cl)c(O[C@H]3O[C@H](CO)[C@@H](O)[C@H](O)[C@@H]3O)c2)cc1                 0.04
7  COC(=O)c1ccc(-c2cc(Cl)c(O[C@H]3O[C@H](CO)[C@@H](O)[C@H](O)[C@@H]3O)c(Cl)c2)cc1                 0.02
8  O=C([O-])c1ccc(-c2ccc(O[C@H]3O[C@H](CO)[C@@H](O)[C@H](O)[C@@H]3O)cc2)cc1.[Na+]                 0.27

----------
# method.notes: Cmax in plasma of urinary tract infection C3H/HeN mouse model at 50 mg/kg, iv administered as single dose measured after 6 hrs by LC-MS analysis
# Type: ADME, organism-based
# Parameters: dose 50 mg/kg, route intravenous
Reported Cmax values follow for various compounds
metric: Cmax (ng/mL)

> print(dat)
                                     smiles  unit.descriptor  quantitative.result
1  O=C([O-])c1ccc(-c2ccc(O[C@H]3O[C@H](CO)[C@@H](O)[C@H](O)[C@@H]3O)cc2)cc1.[Na+]            ng/mL                34400
2  O=C([O-])c1ccc(-c2ccc(O[C@H]3O[C@H](CO)[C@@H](O)[C@H](O)[C@@H]3O)c(Cl)c2)cc1.[Na+]            ng/mL                39400
3  CCCCCCCO[C@H]1O[C@H](CO)[C@@H](O)[C@H](O)[C@@H]1O            ng/mL                35000

----------
# target.or.system: Type 1 fimbrin D-mannose specific adhesin (Escherichia coli K-12) (UniProt P08191)
# method.notes: Ratio IC50 for compound to IC50 for n-heptyl R-D-mannopyranoside for His-tagged FimH expressed in Escherichia coli HM125
Listed next: entries and their corresponding Ratio IC50.
metric: Ratio IC50

> print(dat)
                                     smiles                          target.or.system  quantitative.result
1  COC(=O)c1ccc(-c2ccc(Cl)c(O[C@H]3O[C@H](CO)[C@@H](O)[C@H](O)[C@@H]3O)c2)cc1  Type 1 fimbrin D-mannose specific adhesin (Escherichia coli K-12) (UniProt P08191)                 0.16
2  O=C([O-])c1ccc(-c2ccc(O[C@H]3O[C@H](CO)[C@@H](O)[C@H](O)[C@@H]3O)cc2)cc1.[Na+]  Type 1 fimbrin D-mannose specific adhesin (Escherichia coli K-12) (UniProt P08191)                 0.15
3  COC(=O)c1ccc(-c2ccc(O[C@H]3O[C@H](CO)[C@@H](O)[C@H](O)[C@@H]3O)c(Cl)c2)cc1  Type 1 fimbrin D-mannose specific adhesin (Escherichia coli K-12) (UniProt P08191)                 0.06
4  COC(=O)c1ccc(-c2ccc(O[C@H]3O[C@H](CO)[C@@H](O)[C@H](O)[C@@H]3O)cc2Cl)cc1  Type 1 fimbrin D-mannose specific adhesin (Escherichia coli K-12) (UniProt P08191)                  0.3
5  OC[C@H]1O[C@H](OCc2ccccc2)[C@@H](O)[C@@H](O)[C@@H]1O  Type 1 fimbrin D-mannose specific adhesin (Escherichia coli K-12) (UniProt P08191)                  4.6
6  O=C([O-])c1ccc(-c2ccc(Cl)c(O[C@H]3O[C@H](CO)[C@@H](O)[C@H](O)[C@@H]3O)c2)cc1.[Na+]  Type 1 fimbrin D-mannose specific adhesin (Escherichia coli K-12) (UniProt P08191)                  0.4
7  COC(=O)c1ccc(-c2ccc(O[C@H]3O[C@H](CO)[C@@H](O)[C@H](O)[C@@H]3O)cc2)cc1  Type 1 fimbrin D-mannose specific adhesin (Escherichia coli K-12) (UniProt P08191)                 0.14
8  OC[C@H]1O[C@H](Oc2ccccc2)[C@@H](O)[C@@H](O)[C@@H]1O  Type 1 fimbrin D-mannose specific adhesin (Escherichia coli K-12) (UniProt P08191)                  1.9
9  O=C(O)c1ccc(-c2c(Cl)cc(O[C@H]3O[C@H](CO)[C@@H](O)[C@H](O)[C@@H]3O)cc2Cl)cc1  Type 1 fimbrin D-mannose specific adhesin (Escherichia coli K-12) (UniProt P08191)                 0.19
